These entries and their values trace back to patent US20240400635A1.

Overview of reported FGF21 receptor potency [EC50] nM 0% HSA across a group of binders:
Biological target: FGF receptor/BKL complex (human, UniProt Q86Z14 1-1044)
Sequence (Q86Z14 whole entry, one chain of several): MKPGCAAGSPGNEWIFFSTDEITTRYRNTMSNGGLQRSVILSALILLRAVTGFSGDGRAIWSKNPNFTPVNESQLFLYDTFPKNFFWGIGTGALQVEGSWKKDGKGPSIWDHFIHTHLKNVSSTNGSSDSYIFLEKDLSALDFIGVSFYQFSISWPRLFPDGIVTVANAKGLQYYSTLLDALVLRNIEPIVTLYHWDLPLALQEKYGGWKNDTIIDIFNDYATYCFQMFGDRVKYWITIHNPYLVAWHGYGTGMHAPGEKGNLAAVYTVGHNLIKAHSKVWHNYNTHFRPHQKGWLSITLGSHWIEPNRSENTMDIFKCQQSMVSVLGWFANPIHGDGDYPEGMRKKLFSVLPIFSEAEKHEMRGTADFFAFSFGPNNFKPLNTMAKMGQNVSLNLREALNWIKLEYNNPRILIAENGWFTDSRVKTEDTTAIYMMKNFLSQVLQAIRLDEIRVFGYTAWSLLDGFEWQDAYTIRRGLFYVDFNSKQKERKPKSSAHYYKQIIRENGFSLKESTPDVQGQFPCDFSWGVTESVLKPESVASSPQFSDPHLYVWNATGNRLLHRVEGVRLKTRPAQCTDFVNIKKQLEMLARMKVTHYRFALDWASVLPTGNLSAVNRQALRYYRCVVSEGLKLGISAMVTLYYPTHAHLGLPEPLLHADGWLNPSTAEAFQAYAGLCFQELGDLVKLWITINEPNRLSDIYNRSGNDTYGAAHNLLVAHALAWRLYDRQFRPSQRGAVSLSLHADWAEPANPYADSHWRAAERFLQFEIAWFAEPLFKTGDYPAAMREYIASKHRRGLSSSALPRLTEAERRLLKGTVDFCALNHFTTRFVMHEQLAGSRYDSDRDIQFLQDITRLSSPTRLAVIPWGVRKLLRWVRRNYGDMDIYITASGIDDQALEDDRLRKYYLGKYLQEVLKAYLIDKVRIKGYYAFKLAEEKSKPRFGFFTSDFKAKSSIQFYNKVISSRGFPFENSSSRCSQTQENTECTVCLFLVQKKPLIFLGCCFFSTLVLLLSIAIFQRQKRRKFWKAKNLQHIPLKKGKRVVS
Test: cell-based or functional assay
Reply numerically in nM, unit not repeated.

Consider the following illustrative entries.
S{Beta-27}-[2-[2-[[2-[2-[2-[[2-[2-[2-[[(4S)-4-carboxy-4-(17-carboxyheptadecanoyl-amino)butanoyl]amino]ethoxy]ethoxy]acetyl]amino]ethoxy]ethoxy]acetyl]amino]-eth … (ligand, Cys27 of the GLP-1 part (GLP-1(7-37) numbering; residue 21 of the chain) S-alkylated with substituent Chem. 7) HGEGTFTSDVSSYLEEQAARCFIAWLVKGGGGAQPGAQPGAQPGAQPAHPIPDSSPLLQFGGQVRQRYLYTDDAQQTEAHLEIREDGTVGGAADQSPESLLQLKALKPGVIQILGVKTSRFLCQRPDGALYGSLHFDPEACSFRELLLEDGYNVYQSEAHGLPLHLPGQKSPHRDPAPRGPARFLPLPGLPPALPEPPGILAPQPPDVGSSDPLSLVGGSQGRSPSYES; 0.17
S{Beta-27}-[2-[2-[[2-[2-[2-[[2-[2-[2-[[(4S)-4-carboxy-4-(17-carboxyheptadecanoyl-amino)butanoyl]amino]ethoxy]ethoxy]acetyl]amino]ethoxy]ethoxy]acetyl]amino]-eth … (ligand, Cys27 of the GLP-1 part (GLP-1(7-37) numbering; residue 21 of the chain) S-alkylated with substituent Chem. 7) HGEGTFTSDVSSYLEEQAAKCFIAWLVKGGGGAQPGAQPGAQPGAQPAHPIPDSSPLLQFGGQVRQRYLYTDDAQQTEAHLEIREDGTVGGAADQSPESLLQLKALKPGVIQILGVKTSRFLCQRPDGALYGSLHFDPEACSFRELLLEDGYNVYQSEAHGLPLHLPGQKSPHRDPAPRGPARFLPLPGLPPALPEPPGILAPQPPDVGSSDPLSLVGGSQGRSPSYAS; 0.13
S{Beta-27}-[2-[2-[[2-[2-[2-[[2-[2-[2-[[(4S)-4-carboxy-4-(17-carboxyheptadecanoyl-amino)butanoyl]amino]ethoxy]ethoxy]acetyl]amino]ethoxy]ethoxy]acetyl]amino]-eth … (ligand, Cys27 of the GLP-1 part (GLP-1(7-37) numbering; residue 21 of the chain) S-alkylated with substituent Chem. 7) HGEGTFTSDVSSYLEEQAAKCFIAWLVKGGGGAQPGAQPGAQPGAQPGAQPGAQPGAQPGAQPAHPIPDSSPLLQFGGQVRQRYLYTDDAQQTEAHLEIREDGTVGGAADQSPESLLQLKALKPGVIQILGVKTSRFLCQRPDGALYGSLHFDPEACSFRELLLEDGYNVYQSEAHGLPLHLPGQKSPHRDPAPRGPARFLPLPGLPPALPEPPGILAPQPPDVGSSDPLSLVGGSQGRSPSYAS; 0.24

Consider the binder shown here: S{Beta-26}-[2-[2-[[2-[2-[2-[[2-[2-[2-[[(4S)-4-carboxy-4-(17-carboxyheptadecanoyl-amino)butanoyl]amino]ethoxy]ethoxy]acetyl]amino]ethoxy]ethoxy]acetyl]amino]-eth … (ligand, Cys26 of the GLP-1 part (GLP-1(7-37) numbering; residue 20 of the chain) S-alkylated with substituent Chem. 7) HGEGTFTSDVSSYLEEQAACEFIAWLVKGGGGAQPGAQPGAQPGAQPAHPIPDSSPLLQFGGQVRQRYLYTDDAQQTEAHLEIREDGTVGGAADQSPESLLQLKALKPGVIQILGVKTSRFLCQRPDGALYGSLHFDPEACSFRELLLEDGYNVYQSEAHGLPLHLPGQKSPHRDPAPRGPARFLPLPGLPPALPEPPGILAPQPPDVGSSDPLSLVGGSQGRSPSYAS What is its recorded FGF21 receptor potency [EC50] nM 0% HSA?
0.43
